Just for reference, ChEMBL document CHEMBL4610036 is where these values come from.

SYSTEM: C-X-C chemokine receptor type 6 (Homo sapiens)
Sequence (O00574 whole entry): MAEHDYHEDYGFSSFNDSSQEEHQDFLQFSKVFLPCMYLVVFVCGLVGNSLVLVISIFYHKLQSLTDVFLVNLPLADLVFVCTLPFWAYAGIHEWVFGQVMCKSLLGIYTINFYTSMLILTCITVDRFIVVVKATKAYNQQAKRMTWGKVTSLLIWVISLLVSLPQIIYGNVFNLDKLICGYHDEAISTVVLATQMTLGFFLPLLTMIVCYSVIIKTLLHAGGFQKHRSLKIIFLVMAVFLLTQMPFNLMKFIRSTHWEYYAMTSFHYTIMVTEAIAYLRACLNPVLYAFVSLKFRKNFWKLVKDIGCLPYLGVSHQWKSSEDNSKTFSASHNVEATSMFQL
ASSAY METHOD TEXT: Antagonist activity at Prolink-tagged human CXCR6 receptor assessed as inhibition of forskolin-induced cAMP accumulation by DiscoveRx cell based assay
Format: functional
pIC50: −log10 of the molar value.
Reported pIC50 values for a set of compounds

# SMILES REPR, pIC50
records = [
    ("COc1ccccc1CN1[C@@H]2CCC[C@H]1C[C@H](NC(=O)c1cc(OC)c(OC)c(OC)c1)C2", "< 4.30"),
    ("COc1cc(C(=O)N[C@@H]2C[C@H]3CCC[C@@H](C2)N3Cc2c[nH]c3ccccc23)cc(OC)c1OC", "< 4.30"),
    ("COc1cc(C(=O)N[C@@H]2C[C@H]3CCC[C@@H](C2)N3CCc2nc3ccccc3s2)cc(OC)c1OC", "< 4.30"),
    ("COc1cc(C(=O)N[C@@H]2C[C@H]3CCC[C@@H](C2)N3CC(=O)Nc2c(Cl)cccc2Cl)cc(OC)c1OC", "< 4.40"),
    ("COc1cc(OC)cc(C(=O)N[C@@H]2C[C@H]3CCC[C@@H](C2)N3CC(=O)Nc2ccc(Cl)cc2)c1", "< 4.40"),
    ("COc1ccc(CN2[C@@H]3CCC[C@H]2C[C@H](NC(=O)c2cc(OC)c(OC)c(OC)c2)C3)cc1", "< 4.30"),
    ("COc1ccc(NC(=O)CN2[C@@H]3CCC[C@H]2C[C@H](NC(=O)c2cc(OC)c(OC)c(OC)c2)C3)cc1", "< 4.40"),
    ("COc1ccc(C(=O)N[C@@H]2C[C@H]3CCC[C@@H](C2)N3CC(=O)Nc2ccc(Cl)cc2)cc1OC", "< 4.40"),
    ("COc1cc(C(=O)N[C@@H]2C[C@H]3CCC[C@@H](C2)N3Cc2nc3ccccc3o2)cc(OC)c1OC", "< 4.30"),
    ("COc1cc(C(=O)N[C@@H]2C[C@H]3CCC[C@@H](C2)N3CC(=O)Nc2cccc(Cl)c2Cl)cc(OC)c1OC", "4.59 to 6.39"),
]
